# system-tested: human melanocortin-4 receptor (human, UniProt P32245 1-332)
# Sequence (P32245 whole entry): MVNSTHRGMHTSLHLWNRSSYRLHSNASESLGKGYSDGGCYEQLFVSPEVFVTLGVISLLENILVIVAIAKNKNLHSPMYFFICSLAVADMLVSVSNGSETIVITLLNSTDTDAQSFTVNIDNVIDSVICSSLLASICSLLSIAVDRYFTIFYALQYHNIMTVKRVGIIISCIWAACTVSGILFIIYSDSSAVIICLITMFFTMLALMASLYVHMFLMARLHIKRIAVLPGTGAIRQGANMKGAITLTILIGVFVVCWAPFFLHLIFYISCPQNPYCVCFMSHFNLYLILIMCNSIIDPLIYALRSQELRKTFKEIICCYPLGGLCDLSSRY
# assay-summary: cell-based or functional assay
Positions of bridges follow the written chain, without caps; N, C: chain ends. Non-standard residues stand in square brackets, D forms with d. dPhe(3,4,5-F3) = N[C@H](Cc1cc(F)c(F)c(F)c1)C(=O)O; dPhe(2-CF3) = N[C@H](Cc1ccccc1C(F)(F)F)C(=O)O; dPhe(3,5-F2) = N[C@H](Cc1cc(F)cc(F)c1)C(=O)O; dPhe(4-CN) = N#Cc1ccc(C[C@@H](N)C(=O)O)cc1; dPhe(2-Me) = Cc1ccccc1C[C@@H](N)C(=O)O; dPhe(4-F) = N[C@H](Cc1ccc(F)cc1)C(=O)O; dPhe(2-F) = N[C@H](Cc1ccccc1F)C(=O)O; Orn = NCCC[C@H](N)C(=O)O
experimental-endpoint: Intrinsic Activity, cAMP, 0.1 ng/mL Doxycycline (%)

{"binder": "RDQXRWK (N-terminal Ac; D-Phe(4-CN) 4; lactam Asp 2-Lys 7; C-terminal NH2, also called No. 90) [Ac-Arg-cyclo(Asp-Gln-D-Phe(4-CN)-Arg-Trp-Lys)-NH2]", "measured-result": 31}
{"binder": "Ac-RED[dPhe(4-CN)]RW[Orn]-NH2 (lactam 2-7; SMILES CC(=O)N[C@@H](CCCNC(=N)N)C(=O)N[C@H]1CCC(=O)NCCC[C@@H](C(N)=O)NC(=O)[C@H](Cc2c[nH]c3ccccc23)NC(=O)[C@H](CCCNC(=N)N)NC(=O)[C@@H](Cc2ccc(C#N)cc2)NC(=O)[C@H](CC(=O)O)NC1=O, also called No. 106) [Ac-Arg-cyclo(Glu-Asp-D-Phe(4-CN)-Arg-Trp-Orn)-NH2]", "measured-result": 3}
{"binder": "Ac-R[Orn]N[dPhe(4-F)]RWE-NH2 (lactam 2-7, also called No. 70) [Ac-Arg-cyclo(Orn-Asn-D-Phe(4-F)-Arg-Trp-Glu)-NH2]", "measured-result": 64}
{"binder": "XDQXRWK (N-terminal Ac; D-Arg 1; D-Phe(3-Cl) 4; lactam Asp 2-Lys 7; C-terminal NH2, also called No. 80) [Ac-D-Arg-cyclo(Asp-Gln-D-Phe(3-Cl)-Arg-Trp-Lys)-NH2]", "measured-result": 13}
{"binder": "Ac-R[Orn]N[dPhe(3,5-F2)]RWE-NH2 (lactam 2-7, also called No. 77) [Ac-Arg-cyclo(Orn-Asn-D-Phe(3,5-diF)-Arg-Trp-Glu)-NH2]", "measured-result": 34}
{"binder": "Ac-R[Orn]N[dPhe(2-CF3)]RWE-NH2 (lactam 2-7) [Ac-Arg-cyclo(Orn-Asn-D-Phe(2-CF3)-Arg-Trp-Glu)-NH2]", "measured-result": 50}
{"binder": "Ac-REV[dPhe(4-CN)]RW[Orn]-NH2 (lactam 2-7, also called No. 42) [Ac-Arg-cyclo(Glu-Val-D-Phe(4-CN)-Arg-Trp-Orn)-NH2]", "measured-result": 9}
{"binder": "Ac-R[Orn]N[dPhe(3,4,5-F3)]RWE-NH2 (lactam 2-7) [Ac-Arg-cyclo(Orn-Asn-D-Phe(3,4,5-triF)-Arg-Trp-Glu)-NH2]", "measured-result": 24}
{"binder": "Ac-REQ[dPhe(2-CF3)]RW[Orn]-NH2 (lactam 2-7, also called No. 114) [Ac-Arg-cyclo(Glu-Gln-D-Phe(2-CF3)-Arg-Trp-Orn)-NH2]", "measured-result": 73}
{"binder": "Ac-RED[dPhe(4-CN)]RW[Orn]-OH (lactam 2-7; SMILES CC(=O)N[C@@H](CCCNC(=N)N)C(=O)N[C@H]1CCC(=O)NCCC[C@@H](C(=O)O)NC(=O)[C@H](Cc2c[nH]c3ccccc23)NC(=O)[C@H](CCCNC(=N)N)NC(=O)[C@@H](Cc2ccc(C#N)cc2)NC(=O)[C@H](CC(=O)O)NC1=O, also called No. 107) [Ac-Arg-cyclo(Glu-Asp-D-Phe(4-CN)-Arg-Trp-Orn)-OH]", "measured-result": 4}
{"binder": "Ac-R[Orn]Q[dPhe(2-Me)]RWE-NH2 (lactam 2-7) [Ac-Arg-cyclo(Orn-Gln-D-Phe(2-Me)-Arg-Trp-Glu)-NH2]", "measured-result": 81}
{"binder": "Ac-RES[dPhe(2-F)]RW[Orn]-NH2 (lactam 2-7, also called No. 58) [Ac-Arg-cyclo(Glu-Ser-D-Phe(2-F)-Arg-Trp-Orn)-NH2]", "measured-result": 67}
